Values compiled from patent EP0278661A1.

Readings of mortality at 168 h for the listed compounds
protocol notes: Acute oral toxicity in mouse (mortality)
experimental context: in vivo; oral (stomach sound), 100 mg/kg, ICR mouse, observed for 7 days, 5 head per group; read-out: Mortality (%) at the dose of 100 mg/kg
measure name: mortality at 168 h (%)

> print(dat)
                                   compound  recorded.measurement
1  CCOP(=O)(Oc1ccccc1)SC(C)(C)C (stereo not shown)                     0
2  CCOP(=O)(Oc1ccccc1)SC(C)CC (stereo not shown)                   100
3  CCCSP(=O)(OCC)Oc1ccccc1 (stereo not shown)                   100
4  CCOP(=O)(Oc1ccccc1)SC(C)C (stereo not shown)                   100
